FYI, the data here is from patent US20220363623A1.

Tested on: LNCaP (human PSMA expressing prostate cancer cell line) tumour
Design: species or system mice
Conditions: mouse, in vivo
VALUE KIND: Tumour SUVmax 1 h pi

CC(=O)N(O)CCCCCNC(=O)CCC(=O)N(O)CCCCCNC(=O)CCC(=O)N(O)CCCCCNc1c(NCCN(CCNC(=O)CCCC(=O)NCc2ccc(C(=O)NCCCCC(NC(=O)NC(CCC(=O)O)C(=O)O)C(=O)O)cc2)CCNC(=O)CCCC(=O)NCc2ccc(C(=O)NCCCCC(NC(=O)NC(CCC(=O)O)C(=O)O)C(=O)O)cc2)c(=O)c1=O (single isomer, unassigned) [^68Ga(4), metal not drawn]	1.6 ± 0.10
CC(=O)N(O)CCCCCNC(=O)CCC(=O)N(O)CCCCCNC(=O)CCC(=O)N(O)CCCCCNc1c(NCCN(CCNC(=O)CCCC(=O)NCCCCC(NC(=O)NC(CCC(=O)O)C(=O)O)C(=O)O)CCNC(=O)CCCC(=O)NCCCCC(NC(=O)NC(CCC(=O)O)C(=O)O)C(=O)O)c(=O)c1=O (single isomer, unassigned) [^89Zr(3), metal not drawn]	1.7 ± 0.12
CC(=O)N(O)CCCCCNC(=O)CCC(=O)N(O)CCCCCNC(=O)CCC(=O)N(O)CCCCCNc1c(NCCN(CCNC(=O)CCCC(=O)NCc2ccc(C(=O)NCCCCC(NC(=O)NC(CCC(=O)O)C(=O)O)C(=O)O)cc2)CCNC(=O)CCCC(=O)NCc2ccc(C(=O)NCCCCC(NC(=O)NC(CCC(=O)O)C(=O)O)C(=O)O)cc2)c(=O)c1=O (single isomer, unassigned) [^89Zr(4), metal not drawn]	3.2 ± 0.30

* * *

Test system: LNCaP (human PSMA expressing prostate cancer cell line) tumour
Set-up: species or system mice
Conditions: mouse, in vivo
VALUE KIND: Tumour SUVmax Clearance % (%)

CC(=O)N(O)CCCCCNC(=O)CCC(=O)N(O)CCCCCNC(=O)CCC(=O)N(O)CCCCCNc1c(NCCN(CCNC(=O)CCCC(=O)NCc2ccc(C(=O)NCCCCC(NC(=O)NC(CCC(=O)O)C(=O)O)C(=O)O)cc2)CCNC(=O)CCCC(=O)NCc2ccc(C(=O)NCCCCC(NC(=O)NC(CCC(=O)O)C(=O)O)C(=O)O)cc2)c(=O)c1=O (single isomer, unassigned) [^89Zr(4), metal not drawn]	54
CC(=O)N(O)CCCCCNC(=O)CCC(=O)N(O)CCCCCNC(=O)CCC(=O)N(O)CCCCCNc1c(NCCN(CCNC(=O)CCCC(=O)NCCCCC(NC(=O)NC(CCC(=O)O)C(=O)O)C(=O)O)CCNC(=O)CCCC(=O)NCCCCC(NC(=O)NC(CCC(=O)O)C(=O)O)C(=O)O)c(=O)c1=O (single isomer, unassigned) [^89Zr(3), metal not drawn]	65
CC(=O)N(O)CCCCCNC(=O)CCC(=O)N(O)CCCCCNC(=O)CCC(=O)N(O)CCCCCNc1c(NCCNC(=O)CN(CCN(CC(=O)O)CC(=O)Nc2ccc(C(=O)NCCCCC(NC(=O)NC(CCC(=O)O)C(=O)O)C(=O)O)cc2)CC(=O)O)c(=O)c1=O (stereo not shown) [^89Zr(2), metal not drawn]	57
CC(=O)N(O)CCCCCNC(=O)CCC(=O)N(O)CCCCCNC(=O)CCC(=O)N(O)CCCCCNc1c(NCc2ccc(C(=O)NCCCCC(NC(=O)NC(CCC(=O)O)C(=O)O)C(=O)O)cc2)c(=O)c1=O (single isomer, unassigned) [^89Zr(1), metal not drawn]	63

* * *

Experiment: in vivo
Parameters: species or system mice
Conditions: male, mouse, iv, total radioactivity, Tumour Uptake % ID/g 18 h pi
Below, each entry is listed alongside its reported tissue uptake at 18 h.
VALUE KIND: tissue uptake at 18 h (%ID/g)

CC(=O)N(O)CCCCCNC(=O)CCC(=O)N(O)CCCCCNC(=O)CCC(=O)N(O)CCCCCNc1c(NCCNC(=O)CN(CCN(CC(=O)O)CC(=O)Nc2ccc(C(=O)NCCCCC(NC(=O)NC(CCC(=O)O)C(=O)O)C(=O)O)cc2)CC(=O)O)c(=O)c1=O (stereo not shown)	1
CC(=O)N(O)CCCCCNC(=O)CCC(=O)N(O)CCCCCNC(=O)CCC(=O)N(O)CCCCCNc1c(NCCN(CCNC(=O)CCCC(=O)NCc2ccc(C(=O)NCCCCC(NC(=O)NC(CCC(=O)O)C(=O)O)C(=O)O)cc2)CCNC(=O)CCCC(=O)NCc2ccc(C(=O)NCCCCC(NC(=O)NC(CCC(=O)O)C(=O)O)C(=O)O)cc2)c(=O)c1=O (stereo not shown) [(4), DFOSq-bisPhPSMA ligand]	3.7
CC(=O)N(O)CCCCCNC(=O)CCC(=O)N(O)CCCCCNC(=O)CCC(=O)N(O)CCCCCNc1c(NCCN(CCNC(=O)CCCC(=O)NCCCCC(NC(=O)NC(CCC(=O)O)C(=O)O)C(=O)O)CCNC(=O)CCCC(=O)NCCCCC(NC(=O)NC(CCC(=O)O)C(=O)O)C(=O)O)c(=O)c1=O (single isomer, unassigned)	2.5
CC(=O)N(O)CCCCCNC(=O)CCC(=O)N(O)CCCCCNC(=O)CCC(=O)N(O)CCCCCNc1c(NCc2ccc(C(=O)NCCCCC(NC(=O)NC(CCC(=O)O)C(=O)O)C(=O)O)cc2)c(=O)c1=O (stereo not shown) [(1), DFOSq-PhPSMA ligand]	2.2

* * *

Test system: AR42J (rat pancreatic cancer cell line) tumour
Experiment: in vivo
Design: species or system mice
Settings: mouse
*1 amine or outer side, *2 acyl side, *3 side chain or, on linkers, in order; H or OH if unused. Where a SMILES comes first, the peptide text is derived from it. Bridges are numbered along the chain shown (N, C = ends). Side-chain parts run from the residue outwards. [ ]: non-standard residue; d: D form. The star is where a group is joined. X1 = O=C([C@@H](Cc1ccccc1)N(c1c(NCCCCCN(O)[*:3])c(=O)c1=O)[*:1])[*:2]; X2 = CC(=O)N(O)CCCCCNC(=O)CCC(=O)N(O)CCCCCN*; Thr(ol) = C[C@@H](O)[C@H](N)CO; Suc = O=C(CCC(=O)[*:2])[*:1]
Below, each entry is listed alongside its reported Tumour SUVmax Clearance %.
VALUE KIND: Tumour SUVmax Clearance % (%)

CC(=O)N(O)CCCCCNC(=O)CCC(=O)N(O)CCCCCNC(=O)CCC(=O)N(O)CCCCCNc1c(N[C@H](Cc2ccccc2)C(=O)N[C@H]2CSSC[C@@H](C(=O)N[C@H](C(=O)O)[C@@H](C)O)NC(=O)[C@H]([C@@H](C)O)NC(=O)[C@H](CCCCN)NC(=O)[C@@H](Cc3c[nH]c4ccccc34)NC(=O)[C@H](Cc3ccc(O)cc3)NC2=O)c(=O)c1=O (89Zr complex, metal not drawn) [^89ZrDFOSqTATE] (H-[X1]([Suc-X2])CY[dW]KTCT-OH; disulfide 2-7)	58
CC(=O)N(O)CCCCCNC(=O)CCC(=O)N(O)CCCCCNC(=O)CCC(=O)N(O)CCCCCNc1c(N[C@H](Cc2ccccc2)C(=O)N[C@H]2CSSC[C@@H](C(=O)N[C@H](CO)[C@@H](C)O)NC(=O)[C@H]([C@@H](C)O)NC(=O)[C@H](CCCCN)NC(=O)[C@@H](Cc3c[nH]c4ccccc34)NC(=O)[C@H](Cc3ccc(O)cc3)NC2=O)c(=O)c1=O [DFOSqTIDE] (H-[X1]([Suc-X2])CY[dW]KTC[Thr(ol)]; disulfide 2-7)	55
CC(=O)N(O)CCCCCNC(=O)CCC(=O)N(O)CCCCCNC(=O)CCC(=O)N(O)CCCCCNc1c(N[C@H](Cc2ccccc2)C(=O)N[C@H]2CSSC[C@@H](C(=O)N[C@H](CO)[C@@H](C)O)NC(=O)[C@H]([C@@H](C)O)NC(=O)[C@H](CCCCN)NC(=O)[C@@H](Cc3c[nH]c4ccccc34)NC(=O)[C@H](Cc3ccc(O)cc3)NC2=O)c(=O)c1=O (89Zr complex, metal not drawn) [^89ZrDFOSqTIDE] (H-[X1]([Suc-X2])CY[dW]KTC[Thr(ol)]; disulfide 2-7)	55
CC(=O)N(O)CCCCCNC(=O)CCC(=O)N(O)CCCCCNC(=O)CCC(=O)N(O)CCCCCNc1c(N[C@H](Cc2ccccc2)C(=O)N[C@H]2CSSC[C@@H](C(=O)N[C@H](C(=O)O)[C@@H](C)O)NC(=O)[C@H]([C@@H](C)O)NC(=O)[C@H](CCCCN)NC(=O)[C@@H](Cc3c[nH]c4ccccc34)NC(=O)[C@H](Cc3ccc(O)cc3)NC2=O)c(=O)c1=O [DFOSqTATE] (H-[X1]([Suc-X2])CY[dW]KTCT-OH; disulfide 2-7)	58

* * *

Below, each entry is listed alongside its reported tissue uptake at 1 h.
Assay: in vivo
Design: species or system mice
Settings: male, mouse, iv, total radioactivity, Tumour Uptake % ID/g 1 h pi
VALUE KIND: tissue uptake at 1 h

CC(=O)N(O)CCCCCNC(=O)CCC(=O)N(O)CCCCCNC(=O)CCC(=O)N(O)CCCCCNc1c(NCc2ccc(C(=O)NCCCCC(NC(=O)NC(CCC(=O)O)C(=O)O)C(=O)O)cc2)c(=O)c1=O (stereo not drawn) [(1), DFOSq-PhPSMA ligand]	5.4 %ID/g
CC(=O)N(O)CCCCCNC(=O)CCC(=O)N(O)CCCCCNC(=O)CCC(=O)N(O)CCCCCNc1c(NCCN(CCNC(=O)CCCC(=O)NCc2ccc(C(=O)NCCCCC(NC(=O)NC(CCC(=O)O)C(=O)O)C(=O)O)cc2)CCNC(=O)CCCC(=O)NCc2ccc(C(=O)NCCCCC(NC(=O)NC(CCC(=O)O)C(=O)O)C(=O)O)cc2)c(=O)c1=O (stereo not drawn) [(4), DFOSq-bisPhPSMA ligand]	9.3 %ID/g
CC(=O)N(O)CCCCCNC(=O)CCC(=O)N(O)CCCCCNC(=O)CCC(=O)N(O)CCCCCNc1c(NCCN(CCNC(=O)CCCC(=O)NCCCCC(NC(=O)NC(CCC(=O)O)C(=O)O)C(=O)O)CCNC(=O)CCCC(=O)NCCCCC(NC(=O)NC(CCC(=O)O)C(=O)O)C(=O)O)c(=O)c1=O (single isomer, unassigned)	5.9 %ID/g
CC(=O)N(O)CCCCCNC(=O)CCC(=O)N(O)CCCCCNC(=O)CCC(=O)N(O)CCCCCNc1c(NCc2ccc(C(=O)NCCCCC(NC(=O)NC(CCC(=O)O)C(=O)O)C(=O)O)cc2)c(=O)c1=O (single isomer, unassigned) [^89Zr(1), metal not drawn]	4.6 %ID/g
CC(=O)N(O)CCCCCNC(=O)CCC(=O)N(O)CCCCCNC(=O)CCC(=O)N(O)CCCCCNc1c(NCCNC(=O)CN(CCN(CC(=O)O)CC(=O)Nc2ccc(C(=O)NCCCCC(NC(=O)NC(CCC(=O)O)C(=O)O)C(=O)O)cc2)CC(=O)O)c(=O)c1=O (stereo not drawn)	3.2 %ID/g
CC(=O)N(O)CCCCCNC(=O)CCC(=O)N(O)CCCCCNC(=O)CCC(=O)N(O)CCCCCNc1c(NCCN(CCNC(=O)CCCC(=O)NCc2ccc(C(=O)NCCCCC(NC(=O)NC(CCC(=O)O)C(=O)O)C(=O)O)cc2)CCNC(=O)CCCC(=O)NCc2ccc(C(=O)NCCCCC(NC(=O)NC(CCC(=O)O)C(=O)O)C(=O)O)cc2)c(=O)c1=O (single isomer, unassigned) [^89Zr(4), metal not drawn]	9.3 %ID/g
